- Test system: NCI-H226 lung
- methodSummary: NCI tumour cell line growth inhibition, 48 h
readoutName: TGI

c1ccc(N=C(N2CCCCC2)N(CCN2CCCCC2)c2ccccc2)cc1	16 µM
[N-]=[N+]=Nc1cccc(-c2n[nH]c(Cl)cc2=O)c1	> 100 µM
O=C(O)CCC1(C(=O)O)CCC(=O)c2ccccc21 (stereo unspecified)	> 100 µM
CC[N-]c1nnnn1CC.[Au+].c1ccc([PH+](c2ccccc2)c2ccccc2)cc1	3.2 µM
COc1cc(-c2cc(-c3nc4ccc(F)cc4[nH]3)[nH]n2)cc(OC)c1OC	4.31 µM

Now, please, on to the next compound.
// field: TGI; key: Cc1ccc2c(/C=C/c3ccc(N(C)C)cc3)ccnc2c1C ; value = > 100 µM

----------
- System: ACHN renal
- methodSummary: NCI tumour cell line growth inhibition, 48 h
readoutName: TGI

COC(=O)C(=O)C(CC(=O)Nc1c(C)cccc1C)C(=O)OC (stereo unspecified)	> 100 µM
O=c1[nH]nc(-c2nn(-c3ccc(Cl)cc3)cc2O)o1	> 100 µM
C/C(=N\Nc1nc2ccccc2o1)c1ccc2ccccc2n1	10.6 µM

The compound COc1ccc(C2=Cc3nc2c(-c2ccccc2)c2ccc([nH]2)c(-c2ccccc2)c2nc(c(-c4ccccc4)c4ccc([nH]4)c3-c3ccccc3)C=C2)cc1 , when measured on ACHN renal, yielded TGI of > 100 µM

Let me check: O=C1C(c2ccccc2)=[N+]([O-])c2ccc(Cl)cc21 , system ACHN renal, measured TGI is 56.7 µM

Here CC1(c2ccc(Cl)cc2)NC(=NCCO)c2ccccc21 (stereo unspecified) was tested on ACHN renal, and its TGI came to > 100 µM

----------
- System: SK-MEL-28 melanoma
- methodSummary: NCI tumour cell line growth inhibition, 48 h
readoutName: TGI

Illustrative cases are given below, each with its answer.
COc1ccc(CCc2nc3cc(-c4c(C)noc4C)ccc3n2CCN2CCOCC2)cc1	> 100 µM
CCSC1=CC(Cc2ccc(OC)cc2)N(C(=O)OC)C1 (stereo not given)	> 100 µM
CN1CCN(Cc2nc3cccc4c3c([n+]2[O-])-c2ccccc2-4)CC1	> 62.6 µM
O=C([CH-]C(=O)C(F)(F)F)c1ccccc1.O=C([CH-]C(=O)C(F)(F)F)c1ccccc1.[O]=[U+2]=[O]	79.5 µM

Next compound, TGI to be filled in.
Value of measured TGI for the entry CCOC(=O)C(C(=O)OCC)P(=S)(S)c1ccccc1 (stereo not given) : > 100 µM

----------
- Test system: SK-OV-3 ovarian
- methodSummary: NCI tumour cell line growth inhibition, 48 h
readoutName: TGI

O=C1c2ccccc2S(=O)(=O)N1CSC(=S)N1CCOCC1	> 100 µM
CC1(CO)OC(n2cnc3c(N)ncnc32)C(O)C1O (stereo not given)	> 100 µM
CC1(C)OCC[C@@H]1[Si](C)(C)C	> 100 µM

// CCCCCCCCCCCCCCCC(=O)Nc1ccn(C2CC(OP(=O)(O)OCC3OC(n4cc(F)c(=O)[nH]c4=O)CC3OC(C)=O)C(CO)O2)c(=O)n1 (stereo not given) : TGI value = > 51.6 µM

Form: molecule = CCOC(=O)c1cc(C(=O)c2cc(OC)c(OC)c(OC)c2)n2nc(C)ccc12 ; TGI = > 100 µM

Documented TGI of C=C(C)[C@@H]1CC[C@]2(C(N)=O)CC[C@]3(C)[C@H](CC[C@@H]4[C@@]5(C)C/C(=C/c6cccnc6)C(=O)C(C)(C)[C@@H]5CC[C@]43C)[C@@H]12 : > 100 µM

Value of TGI reported for the molecule CC(C)(C(=O)NCC(F)(F)C(F)(F)F)C(=O)N[C@@H]1C(=O)Nc2ccccc2-c2ccccc21 is > 100 µM

Consider O=C1C(c2ccccc2)=[N+]([O-])c2ccc(Cl)cc21 . Its measured TGI is > 100 µM

Memo: O=C1NC(N/N=C\C(O)C(O)C(O)C(O)CO)=N/C1=C\c1ccc(Cl)cc1 (stereo not given) , reported TGI: 40.6 µM

# TGI of COCCOc1nc(-c2ccccc2)nc2ccccc12 = > 100 µM

Item: COc1cc2c3c(n(CCCN)c(=O)c2cc1OC)-c1ccc(N(C)C)cc1C3=O | TGI: 42.7 µM

Note to self: TGI recorded for O=C(O)CCC1(C(=O)O)CCC(=O)c2ccccc21 (stereo not given) was > 100 µM

// TGI lookup, molecule = CC(=O)Nc1ccc(C(=O)NN2C(=O)C(Cl)C2c2cc(Br)cc(Br)c2O)cc1 (stereo not given) , result: > 100 µM

----------
- System: SNB-75 CNS
- methodSummary: NCI tumour cell line growth inhibition, 48 h
readoutName: TGI (µM)
Your answer is read as µM, so omit the unit and give the number.

Examples with their reported TGI follow.
Cn1cc(-c2csc(-c3c[nH]c4ccccc34)n2)c2cccnc21	4.82
Nc1nc2c3c(ncn3CC(O)CO2)n1 (centres undefined)	29
CC(=O)/C(=C\c1c(-c2ccccc2)[nH]c2ccccc12)S(C)(=O)=O	5.2
Fc1ccc(-c2ncn(C3CCNCC3)c2-c2ccnc(Oc3cccc(C(F)(F)F)c3)n2)cc1	6.52
CCC(C)C1NC(=O)C(NC(=O)C(CC(C)C)N(C)C(=O)[C@@H]2C=CCN2C(=O)[C@H](C)O)C(C)OC(=O)[C@H](Cc2ccc(OC)cc2)N(C)C(=O)[C@@H]2CCCN2C(=O)[C@H](CC(C)C)NC(=O)C(C)C(=O)[C@H](C(C)C)OC(=O)CC1O (some centres undefined)	0.0126

Documented TGI of NS(=O)(=O)c1ccc(N=Nc2c(O)[nH]c3ccc(Cl)cc23)cc1 : 24.9

----------
- Tested on: OVCAR-5 ovarian
- methodSummary: NCI tumour cell line growth inhibition, 48 h
readoutName: TGI

COc1cc2c(cc1OCCCCCN1CCN(CCCCCOc3cc4c(cc3OC)C(=O)C3CCC[C@H]3C=N4)CC1)N=C[C@@H]1CCCC1C2=O (some centres undefined)	> 54.1 µM
CC[O-].CC[O-].CN(C)c1ccc([O-])cc1.CN(C)c1ccc([O-])cc1.[Ti+4]	> 100 µM
CCNCCNc1cc(-c2ccc(Cl)c(Cl)c2)c(C#N)c2nc3ccccc3n12	3.55 µM

Proceed to the following item.
Form field, TGI with OVCAR-5 ovarian, item C#CC#CC#CC#CC#CC#CC#CC#CC[C@@H]1OC[C@H](COC(=O)O[C@@H](C(=O)O[C@H]2C[C@@]3(O)[C@@H](OC(=O)c4ccccc4)[C@@H]4[C@]5(OC(C)=O)CO[C@@H]5C[C@H](O)[C@@]4(C)C(=O)[C@H](OC(C)=O)C(=C2C)C3(C)C)[C@@H](NC(=O)c2ccccc2)c2ccccc2)O1 : > 25 µM

----------
- System: A549 NSCLC
- methodSummary: NCI tumour cell line growth inhibition, 48 h; in the data active = GI50 below about 0.43 µM; inactive = the rest
Could you please pick one outcome from this set? t (active), f (inactive)

Which outcome did this test record for the compound COc1cc(-c2cc(-c3nc4ccc(F)cc4[nH]3)[nH]n2)cc(OC)c1OC ?
f

Name the outcome recorded for COC(=O)C(C)NP(=O)(OCc1ccc(Cn2cnc3c(N)ncnc32)cc1)Oc1ccccc1 (stereo unspecified) in the assay.
f

Status in this test for C#CC#CC#CC#CC#CC#CC#CC#CC[C@@H]1OC[C@H](COC(=O)O[C@@H](C(=O)O[C@H]2C[C@@]3(O)[C@@H](OC(=O)c4ccccc4)[C@@H]4[C@]5(OC(C)=O)CO[C@@H]5C[C@H](O)[C@@]4(C)C(=O)[C@H](OC(C)=O)C(=C2C)C3(C)C)[C@@H](NC(=O)c2ccccc2)c2ccccc2)O1 ?
f

Please state the recorded outcome for this compound: CCOc1ccccc1C(=O)/C=C/c1cc2ccccc2[nH]c1=O
t

What classification did CCCCCC[n+]1noc(N)c1-c1ccc(-c2c(N)on[n+]2CCCCCC)cc1 end up with in this test?
f

How did this test come out for O=C(Nc1ccccc1C(=O)N/N=C(\c1ccccc1)c1ccccn1)c1ccccc1 ?
f

Tell me the recorded outcome of this test for Cc1cccc(-n2cnc3cc(C(=O)N4CCCCC4)ccc32)c1 .
f

Look up the recorded call for COC(=O)c1ccc(C2SC(C)C(=O)N2NC(=O)C(O)c2ccccc2)cc1 (stereo unspecified) in this test.
f

Could you check what this test reported for COc1ccc(CCc2nc3cc(-c4c(C)noc4C)ccc3n2CCN2CCOCC2)cc1 ?
f

Please state the recorded outcome for this compound: CCCCCCC(O)(c1ccc(F)cc1)C(CN1CCOCC1)c1ccccc1 (stereo unspecified)
f

----------
- System: SR leukemia
- methodSummary: NCI tumour cell line growth inhibition, 48 h
Item-by-item account of TGI

COc1ccc(/C=C(/C(=O)N2CCCCC2)c2cc(OC)c(OC)c(OC)c2)cc1	> 100 µM
Nc1nc2c3c(ncn3CC(O)CO2)n1 (centres undefined)	> 100 µM
CN1CCC(CN2c3ccccc3Sc3ccccc32)C1 (centres undefined)	29.6 µM

Entry Cc1cc(S(=O)(=O)N/C(=C(\C#N)C(=O)c2ccccc2)[n+]2ccc(N(C)C)cc2)c([S-])cc1Cl ; TGI = > 100 µM

Consider CCN(CC)c1ccc2cc(-c3nc4ccccc4n3C)c(=O)oc2c1 . Its measured TGI is > 100 µM
